- MEASURED ON: T1, mouse MMP-2 (Mus musculus, UniProt P33434)
- T1 construct: purchased R&D Systems 924-MP-010
- ASSAY INFO: Enzyme inhibition assay (single point inhibition, IC50/Ki,app), substrate M-2350
- Assay type: biochemical
- CONDITION LABEL: small-scale sFab; Table 10

MOLECULE | Ki [nM]
M0273-G07: affinity matured variant of M237-D02, sFab (antibody, V domains shown) VH: EVQLLESGGGLVQPGGSLRLSCAASGFTFSHYDMWWVRQAPGKGLEWVSVIYPSGGPTYYADSVKGRFTISRDNSKNTLYLQMNSLRAEDTAVYYCAKDRAYGDYVGWNGFDYWGQGTLVTVSS VL: QDIQMTQSPATLSLSPGERATLSCRASQSISSFLAWYQQKPGQAPRLLIYDASYRATGIPARFSGSGSGTDFTLTISSLEPEDYAVYYCQQRGNWPITFGQGTRLEIK | 22
M0273-C10: affinity matured variant of M237-D02, sFab (antibody, V domains shown) VH: EVQLLESGGGLVQPGGSLRLSCAASGFTFSFYPMWWVRQAPGKGLEWVSYIYPSGGATFYADSVKGRFTISRDNSKNTLYLQMNSLRAEDTAVYYCAKDRAYGDYVGWNGFDYWGQGTLVTVSS VL: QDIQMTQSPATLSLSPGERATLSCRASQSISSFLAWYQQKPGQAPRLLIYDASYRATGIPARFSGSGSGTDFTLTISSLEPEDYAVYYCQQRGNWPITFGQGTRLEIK | 18
